protocolNotes: Cytotoxicity against human KATO3 cells after 72 hrs by MTT assay
Format: functional, cell-based
conditions: KATO3, 72 h
pIC50: −log10 of the molar value.
measurementName: pIC50

chemicalstring=CCCCCCCCCCCCCCCCOC[C@@H](O)COP(=O)(O)OC[C@@H](O)CO measured=4.31
